# experimentSummary: In vitro clearance
# Type: in vitro ADME, human
# measurementConditions: human (h)
measuredAttribute: Predicted CLhep (mL/min/kg)

Field: example entries. Status: answers known.
[
  {
    "compound": "Cc1nn(C)cc1S(=O)(=O)N1CC[C@H](C(=O)Nc2ccc3scnc3c2)[C@@H](F)C1 (racemic) [(rac)-30a]",
    "Predicted CLhep [mL/min/kg]": 5
  },
  {
    "compound": "C[C@@H]1CN(S(=O)(=O)c2ccc3c(c2)CCO3)CC[C@@H]1C(=O)Nc1ccc2scnc2c1 (racemic) [(rac)-22]",
    "Predicted CLhep [mL/min/kg]": 19
  },
  {
    "compound": "O=C(Nc1ccc2scnc2c1)C1CCN(S(=O)(=O)c2ccc3ncsc3c2)CC1 [29a]",
    "Predicted CLhep [mL/min/kg]": 13
  },
  {
    "compound": "Cn1ncc(S(=O)(=O)N2CC[C@H](C(=O)Nc3ccc4scnc4c3)[C@@H](F)C2)c1Cl (racemic) [(rac)-30b]",
    "Predicted CLhep [mL/min/kg]": 4
  }
]

a: Cc1ncc(S(=O)(=O)N2CC[C@H](C(=O)Nc3ccc4scnc4c3)[C@@H](F)C2)s1 (racemic) [(rac)-30c]
b: O=C(Nc1ccc2cccnc2c1)C1CCN(S(=O)(=O)c2ccc3c(c2)CCO3)CC1 [28f]
c: O=C(Nc1ccc2scnc2c1)C1CCN(S(=O)(=O)c2cccnc2)CC1 [29e]
Prompt: With regard to Predicted CLhep, arrange the entries in ascending order, please. Thanks in advance for listing the labels in the requested order.
Response: a, c, b
(a: 5 mL/min/kg, c: 10 mL/min/kg, b: 17 mL/min/kg)
